- protocol_text: standard test for evaluation of inhalation anesthetics in mice (rotating drum, 10 min exposure)
- Assay type: in vivo
- particulars: mouse, in vivo, inhaled or intranasal; calculated from AC50 and LC50 minimum concentrations; read-out: AI (anesthetic index)
The entries below are paired with their reported selectivity ratio at 10 min.

COC1(F)C(F)(F)C(F)(F)C1(F)Br (stereo not drawn)    > 2.5
COC1CC(F)(F)C1(F)Cl (stereo not drawn)    > 2

Next, consider the following compound.
Please give the measured selectivity ratio at 10 min for this compound: COC1(F)C(F)(F)C(F)(F)C1(F)Cl (stereo not drawn) ~2
